Reported pEC50 is given for each of the following compounds.
assay_target: JAK2 (catalytic domain, His-tag) (Homo sapiens, UniProt O60674)
Construct: All four purified enzymes contain only the catalytic domain; His (N); purchased Carna Biosciences, Inc; host or cells: baculovirus expression system
Sequence (O60674 849-1124 limits assumed): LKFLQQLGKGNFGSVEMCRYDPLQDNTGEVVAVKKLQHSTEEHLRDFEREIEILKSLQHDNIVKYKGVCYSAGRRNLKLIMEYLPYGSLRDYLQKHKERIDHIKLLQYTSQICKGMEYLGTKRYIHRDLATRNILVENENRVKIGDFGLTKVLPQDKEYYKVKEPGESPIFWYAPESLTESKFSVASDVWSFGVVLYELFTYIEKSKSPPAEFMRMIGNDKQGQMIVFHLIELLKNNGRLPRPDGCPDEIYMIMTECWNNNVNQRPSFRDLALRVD
test_details: JAK kinase assay (HTRF, phosphorylation of TK substrate-biotin), JAK2
Type: biochemical
condition_info: HTRF assay, ATP at Km (4 μM); read-out: JAK2 kinase inhibitory activity (EC50 indicator)
pEC50: −log10 of the molar value.

Cc1c(C(=O)N2CCN(c3ccnc4[nH]ccc34)CC23CC3)sc2ccccc12	> 7.00

Lab note: measured pEC50 of `O=C([C@H]1CCCc2ccccc21)N1CCN(c2ncnc3[nH]ccc23)CC12CC2` was > 7.00

Lab note: measured pEC50 of `Cc1c[nH]c2ncnc(N3CCN(C(=O)Cc4cccc(CC#N)c4)C4(CC4)C3)c12` was < 6.30

Lab note: measured pEC50 of `NS(=O)(=O)c1cccc(C(=O)N2CCN(c3ncnc4[nH]ccc34)CC23CC3)c1` was > 7.00

Lab note: measured pEC50 of `Cc1nccnc1C(=O)N1CCN(c2ncnc3[nH]ccc23)CC12CC2` was > 7.00

Lab note: measured pEC50 of `CS(=O)(=O)c1cccc(C(=O)N2CCN(c3ncnc4[nH]ccc34)CC23CC3)c1` was > 7.00

Lab note: measured pEC50 of `Cc1nc2ccccc2nc1C(=O)N1CCN(c2ncnc3[nH]ccc23)CC12CC2` was > 7.00

Lab note: measured pEC50 of `N#Cc1ccc(C(=O)N2C[C@@H]3C[C@H]2CN3c2ncnc3[nH]ccc23)cc1` was < 6.30

Lab note: measured pEC50 of `COc1cc(C(=O)N2CCN(c3ncnc4[nH]ccc34)CC23CC3)cs1` was > 7.00

Lab note: measured pEC50 of `Cc1c[nH]c2ncnc(N3CCN(C(=O)c4cnccn4)C4(CC4)C3)c12` was < 6.30

Lab note: measured pEC50 of `N#Cc1ccccc1C(=O)N1CCN(c2ccnc3[nH]ccc23)CC12CC2` was > 7.00

Lab note: measured pEC50 of `N#Cc1ccc(C2(C(=O)N3CCN(c4ncnc5[nH]ccc45)CC34CC4)CC2)cc1` was > 7.00

Lab note: measured pEC50 of O=C(C1CCc2ccccc21)N1CCN(c2ncnc3[nH]ccc23)CC12CC2 (centres unmarked) was > 7.00
